B1: C19orf51 (parent)
chain: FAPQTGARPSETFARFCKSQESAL

Variants of: B1
ASSAY: protein stability index of a GFP-peptide fusion (GPS, HEK-293T) (PSI 1-6); higher = more stable;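 note: lentivirally expressed fusions sorted by FACS into six bins by GFP to DsRed ratio, PSI derived from sequencing read proportions per bin multiplied by bin number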
SETTINGS: c terminus: a fixed tail appended
MEASUREMENT_TYPE: protein stability index
No unit in the answer, please; the number alone is enough.

Examples with their reported protein stability index follow.
Task item: Report protein stability index for S22R please.
Reply: 1.51

Task item: Report protein stability index for S22P please.
Reply: 3.4

Task item: Report protein stability index for E21D please.
Reply: 2.04

Task item: Report protein stability index for S22T please.
Reply: 1.88

Continuing:
Task item: Report protein stability index for Q4K please.
Reply: 1.99

Task item: Report protein stability index for Q20Y please.
Reply: 2.31
